Where do the numbers come from? From ChEMBL document CHEMBL1156747.

- System under test: Vascular endothelial growth factor receptor 2 (Homo sapiens, UniProt P35968)
- Sequence (P35968 whole entry): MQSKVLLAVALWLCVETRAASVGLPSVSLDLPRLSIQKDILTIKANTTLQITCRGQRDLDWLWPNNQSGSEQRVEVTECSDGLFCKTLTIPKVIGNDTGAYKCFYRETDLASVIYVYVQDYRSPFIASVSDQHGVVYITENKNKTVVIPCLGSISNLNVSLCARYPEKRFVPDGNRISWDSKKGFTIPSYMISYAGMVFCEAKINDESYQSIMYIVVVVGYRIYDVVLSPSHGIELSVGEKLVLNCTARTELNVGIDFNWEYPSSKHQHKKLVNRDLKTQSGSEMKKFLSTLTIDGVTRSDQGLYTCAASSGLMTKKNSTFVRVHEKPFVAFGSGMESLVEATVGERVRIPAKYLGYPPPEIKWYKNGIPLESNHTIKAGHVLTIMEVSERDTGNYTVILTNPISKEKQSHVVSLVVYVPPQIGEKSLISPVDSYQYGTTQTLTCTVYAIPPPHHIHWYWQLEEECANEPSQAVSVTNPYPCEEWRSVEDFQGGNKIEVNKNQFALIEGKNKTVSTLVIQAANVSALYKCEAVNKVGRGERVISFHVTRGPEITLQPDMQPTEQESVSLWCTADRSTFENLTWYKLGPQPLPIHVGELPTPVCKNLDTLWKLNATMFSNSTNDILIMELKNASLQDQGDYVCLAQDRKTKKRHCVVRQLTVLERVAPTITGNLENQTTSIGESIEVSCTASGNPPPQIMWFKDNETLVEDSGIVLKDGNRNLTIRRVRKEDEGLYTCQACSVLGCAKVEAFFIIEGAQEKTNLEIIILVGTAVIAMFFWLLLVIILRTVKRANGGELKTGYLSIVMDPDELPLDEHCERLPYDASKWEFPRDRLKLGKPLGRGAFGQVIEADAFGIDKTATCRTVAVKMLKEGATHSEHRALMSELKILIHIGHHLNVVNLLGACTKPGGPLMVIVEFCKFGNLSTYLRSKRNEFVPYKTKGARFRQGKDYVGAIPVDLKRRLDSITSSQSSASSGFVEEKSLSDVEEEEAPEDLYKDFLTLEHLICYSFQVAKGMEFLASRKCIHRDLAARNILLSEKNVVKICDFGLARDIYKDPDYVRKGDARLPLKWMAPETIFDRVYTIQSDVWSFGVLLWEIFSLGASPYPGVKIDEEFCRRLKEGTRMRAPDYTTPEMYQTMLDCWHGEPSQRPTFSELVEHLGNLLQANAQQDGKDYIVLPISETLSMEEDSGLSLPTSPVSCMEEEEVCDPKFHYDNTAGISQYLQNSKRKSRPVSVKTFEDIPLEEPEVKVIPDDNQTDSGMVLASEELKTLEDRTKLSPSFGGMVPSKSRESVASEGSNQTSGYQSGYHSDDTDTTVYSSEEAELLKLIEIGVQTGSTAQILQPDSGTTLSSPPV
- Experiment notes: Inhibition of VEGFR2 assessed as inhibition of ERK phosphorylation
Recorded endpoint: pIC50
The quantity pIC50 is defined as the negative base-10 logarithm of the molar concentration.

Form field: reported pIC50 of CCn1cnc(-c2cc3nccc(Oc4ccc(NC(=O)C5(C(=O)Nc6ccccc6)CC5)cc4F)c3s2)c1 9.00

----------
- Experiment notes: Half life in rat at 2.17 to 2.86 mg/kg, iv
- Format: ADME, organism-based
- Parameters: dose 2.17-2.86 mg/kg, route intravenous
- Study conditions: in vivo
Recorded endpoint: half-life (h)
Report the value in h with no unit label.

Form field: reported half-life of CCn1cnc(C(=O)c2cc3nccc(Oc4ccc(NC(=O)CC(=O)Nc5ccccc5)cc4F)c3s2)c1 2.6

Form field: reported half-life of CCn1cnc(-c2cc3nccc(Oc4ccc(NC(=O)CC(=O)N(C)c5ccccc5)cc4F)c3s2)c1 0.91

Form field: reported half-life of CCn1cnc(-c2cc3nccc(Oc4ccc(NC(=O)C5(C(=O)Nc6ccccc6)CC5)cc4F)c3s2)c1 3.1
